B1: TPR t1 (parent)
chain: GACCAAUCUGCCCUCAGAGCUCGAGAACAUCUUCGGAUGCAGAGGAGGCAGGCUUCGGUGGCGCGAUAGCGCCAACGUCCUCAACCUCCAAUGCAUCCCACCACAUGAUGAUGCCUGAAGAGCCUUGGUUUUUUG

variants of: B1; assay: polymerase ribozyme fitness, log enrichment relative to wild type (log ratio); higher = more active; in vitro selection for triplet polymerase activity
Returns Fulfilled if the recorded polymerase ribozyme fitness (log ratio) is greater than or equal to -2, and Not fulfilled otherwise.

mutations: U78C G120A
discrete_label: Fulfilled

mutations: G36U G44A U112A
discrete_label: Fulfilled

mutations: A6G G45A C72U U109G G120U
discrete_label: Not fulfilled

mutations: A50C C88A U130C U133A
discrete_label: Fulfilled

mutations: A2C A66U
discrete_label: Not fulfilled

mutations: G51A A74C
discrete_label: Not fulfilled

mutations: C49U G71C C94G
discrete_label: Not fulfilled

mutations: G39U A41G G45A A119G U132G G135U
discrete_label: Not fulfilled

mutations: G17U A43U G48U A74G
discrete_label: Not fulfilled

mutations: G113U U116A
discrete_label: Not fulfilled

mutations: G48C C56G G110U
discrete_label: Fulfilled

mutations: G60A C85U U106G
discrete_label: Not fulfilled

mutations: C12G C13A A24G U106G C124A
discrete_label: Fulfilled

mutations: G17C C85G C86U A91U U112G
discrete_label: Not fulfilled

mutations: A83C A111U
discrete_label: Not fulfilled

mutations: A46C U54A G120U
discrete_label: Fulfilled

mutations: C3U C12G C85U
discrete_label: Fulfilled

mutations: C3U C70U G110A
discrete_label: Not fulfilled

mutations: C11G A83U U106C
discrete_label: Fulfilled

mutations: C64A G69C A75U U87A U96A
discrete_label: Fulfilled

Hello, the source for this data is the RNAGym collection of RNA variant scans (doi:10.1073/pnas.2313332121), in case you need it.
